System: HEK-293T
Assay: Multiplex assay against HEK293T
Type: toxicity, cell-based
Conditions: human, 48 h, 10 µM, compound concentration 10 uM, replicate 1
Note to self: use rule met only for Total Cell Count readings below 500; a reading exactly at 500 still gets rule not met.

compound: Cl.N=C(N)NC(=O)Cc1c(Cl)cccc1Cl [GUANFACINE HYDROCHLORIDE]
class-label: rule met

Prompt: Below 500 on Total Cell Count? Entry N#Cc1c(Oc2cccc(OS(=O)(=O)CCCC(F)(F)F)c2)cccc1C(F)(F)F
Completion: rule met

Prompt: Check if Total Cell Count falls below 500 for CCc1cc2cc(NS(=O)(=O)c3ccc(C#N)cc3)ccc2n(CC)c1=O .
Completion: rule not met

Prompt: Could you please tell me whether Total Cell Count recorded for Cc1c(CC(=O)O)c2cccnc2n1Cc1ccc(S(C)(=O)=O)cc1C(F)(F)F is less than 500?
Completion: rule not met

Prompt: # strict comparison: is reported Total Cell Count < 500? input = CCCCCC(O)/C=C/[C@H]1C(=O)CC(O)C1C/C=C\CCCC(=O)O (stereo not given in full)
Completion: rule not met

###

Test system: U2OS
Experiment: Multiplex assay against U2OS
Format: toxicity, cell-based
Conditions: human, 48 h, 1 µM, compound concentration 1 uM, replicate 1
compounds and their reported Population Fragmented Nuclei (%)
Response body: numeric value in %, unit text excluded.

compound: Cc1noc(-c2ccc(-c3ccc(CC(=O)O)cc3)cc2)c1NC(=O)O[C@H](C)c1ccccc1Cl
unit-info: %
Population Fragmented Nuclei (%): 15
//
compound: Cc1c(CC(=O)O)c2cccnc2n1Cc1ccc(S(C)(=O)=O)cc1C(F)(F)F
unit-info: %
Population Fragmented Nuclei (%): 18
//
compound: O=C1[C@H](Cc2ccc(O)cc2)N2C(=O)CCN(C(=O)NCc3ccccc3)[C@H]2CN1Cc1cccc2ccccc12
unit-info: %
Population Fragmented Nuclei (%): 15
//
compound: COc1cccc2c1c(NS(=O)(=O)c1ccc(Cl)s1)nn2Cc1cccc(CNC(=O)C(C)(C)O)c1
unit-info: %
Population Fragmented Nuclei (%): 14

Per the records, this compound ( CCCOc1ccc2[nH]cc(C3=CCNCC3)c2n1.Cl ) has Population Fragmented Nuclei (%) equal to 19

Data point: CCCCCC(O)/C=C/[C@H]1C(=O)CC(O)C1C/C=C\CCCC(=O)O (some centres undefined) ; Population Fragmented Nuclei (%) = 19

Population Fragmented Nuclei (%) reading for C[C@H](N)COC(=O)[C@@H](CCCCN)NC(=O)Cc1c(-c2ccc3ccccc3c2)[nH]c2c1ccc1ccccc12 : 16

Br.CS(=O)(=O)Nc1c(O)ccc2c1CCCC2C1=NCCN1 (centres undefined) yielded Population Fragmented Nuclei (%) of 14

Looking up COc1ccccc1N1CCN(C[C@@H](C(=O)NC(C)(C)C)c2ccccc2)CC1.Cl.Cl , I see its Population Fragmented Nuclei (%) listed as 21

###

Tested on: HEK-293T
Experiment: Multiplex assay against HEK293T
Assay type: toxicity, cell-based
Settings: human, 48 h, 10 µM, compound concentration 10 uM, replicate 2
endpoint-label: Population Normal (%)
Number in %, nothing else.

Below: 5 compounds and their reported Population Normal (%).
compound: O=C1[C@H](Cc2ccc(O)cc2)N2C(=O)CCN(C(=O)NCc3ccccc3)[C@H]2CN1Cc1cccc2ccccc12
unit-info: %
Population Normal (%): 79

compound: Cc1cnc(-c2cc(N3CCN(C(=O)CCS(C)(=O)=O)CC3)ncc2Cl)c(C)c1
unit-info: %
Population Normal (%): 96

compound: N#Cc1c(Oc2cccc(OS(=O)(=O)CCCC(F)(F)F)c2)cccc1C(F)(F)F
unit-info: %
Population Normal (%): 75

compound: CCc1cc2cc(NS(=O)(=O)c3ccc(C#N)cc3)ccc2n(CC)c1=O
unit-info: %
Population Normal (%): 89

compound: CCCCC1=NC2(CCCC2)C(=O)N1Cc1ccc(-c2ccccc2-c2nnn[nH]2)cc1
unit-info: %
Population Normal (%): 96

The compound listed as Cc1noc(-c2ccc(-c3ccc(CC(=O)O)cc3)cc2)c1NC(=O)O[C@H](C)c1ccccc1Cl shows Population Normal (%) equal to 89

Input COc1ccccc1N1CCN(C[C@@H](C(=O)NC(C)(C)C)c2ccccc2)CC1.Cl.Cl . Output Population Normal (%): 94

// sample CN(C)C(=O)Cn1cc(-c2ccc(-c3cncc4ccccc34)cc2)cn1 , its Population Normal (%) was 91

Lab book: Population Normal (%) of CCCCCC(O)/C=C/[C@H]1C(=O)CC(O)C1C/C=C\CCCC(=O)O (some centres not stated) noted as 96

Sure, the documented Population Normal (%) for O=C(NCCN1CCC(n2c(=O)[nH]c3cc(Cl)ccc32)CC1)c1ccc(F)cc1 [HALOPEMIDE] is 93

For COC[C@@H](c1ccc(C(F)(F)F)cc1)N1CCN(C2(C)CCN(C(=O)c3c(C)ncnc3C)CC2)C[C@@H]1C.O=C(O)/C=C\C(=O)O [VICRIVIROC MALEATE] the compound record lists Population Normal (%) as 88

The value of Population Normal (%) measured for the compound CC(C)c1noc(N2CCC(COc3ccc(-c4ccc(S(C)(=O)=O)cc4)nc3)CC2)n1 turned out to be 94

Cited source: ChEMBL document CHEMBL5058577
